Experiment notes: Cell Viability - N2a (AID 540);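 note: cells exposed to compound for 40 h at 37 °C; nearly all actives have a fitted effect of over 45% in size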; note: potency is the fitted concentration of half-maximal effect
Condition set: N2a mouse neuroblastoma cell viability
Results filed as inconclusive are left out. Active and inactive are the calls of the source. Calls come from the whole dose curve; as a rule, active = well fitted cell-killing curve with a large enough effect; inconclusive = small, poorly fitted or top-dose-only effect; inactive = flat fitted curve, though single readings scatter.
Measurement label: Potency

C[C@]12CC[C@@H]3c4ccc(O)cc4CC[C@H]3[C@@H]1CC[C@@H]2O :: inactive
Oc1ccc(Cl)cc1Sc1cc(Cl)ccc1O :: 31.6 µM (active)
NC(=NCCCCCCN=C(N)/N=C(\N)Nc1ccc(Cl)cc1)/N=C(\N)Nc1ccc(Cl)cc1 :: 31.6 µM (active)
COC1=CC(=O)C[C@@H](C)[C@]12Oc1c(Cl)c(OC)cc(OC)c1C2=O :: inactive
C=CCc1ccc(O)c(OC)c1 :: inactive
Oc1c(Cl)cc(Cl)cc1Sc1cc(Cl)cc(Cl)c1O :: 31.6 µM (active)
CC(O)C(=O)O (stereo not given) :: inactive
Nc1ccc(C(=O)O)cc1 :: inactive
Oc1c(I)cc(Cl)c2cccnc12 :: 31.6 µM (active)
O=C(O)CCCCC(=O)O :: inactive

====

Measured on: Voltage-gated inwardly rectifying potassium channel KCNH2 (Homo sapiens)
Experiment notes: qHTS Assay for Small Molecule Inhibitors of the Human hERG Channel Activity (AID 588834);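 note: lower thallium flux fluorescence means stronger hERG block; nearly all actives have a fitted effect of over 50% in size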
Condition set: U2OS BacMam hERG, FluxOR thallium flux fluorescence; series mostly up to 46.1 µM
Results filed as inconclusive are left out. Calls of active or inactive are those of the source. The call rests on the fitted dose curve; in most records, active means well fitted inhibition curve with a large enough effect; inconclusive means small, poorly fitted or top-dose-only effect; inactive means flat fitted curve, though single readings scatter.
Outcome codes: y for active, n for inactive

CC(C)(CO)[C@@H](O)C(=O)NCCCO :: n
Cc1cc(=O)n(-c2ccccc2)n1C :: n
O=C1OC2(c3ccc(O)cc3Oc3cc(O)ccc32)c2ccccc21 :: y
CC(=O)O[C@H]1C[C@@H]2CC[C@@H]3[C@H](CC[C@@]4(C)[C@H]3C[C@H]([N+]3(C)CCCCC3)[C@@H]4OC(C)=O)[C@@]2(C)C[C@@H]1[N+]1(C)CCCCC1 :: n
O=C(Nc1ccc(Cl)c(Cl)c1)C1CC1 :: n
CCn1cc(C(=O)O)c(=O)c2cnc(N3CCCC3)nc21 :: n
O=C(OCC(O)CO)c1ccccc1Nc1ccnc2cc(Cl)ccc12 (stereo unspecified) :: n
CCN(CC)CCOc1ccc(C(O)(Cc2ccc(Cl)cc2)c2ccc(C)cc2)cc1 (stereo unspecified) :: y
CCC(C(=O)OCCN(CC)CC)c1ccccc1 (stereo unspecified) :: n
CCOC(=O)COc1ccc2c(C)c(CCN(CC)CC)c(=O)oc2c1Cl :: y
c1ccc(OCc2ccc(CCCN3CCOCC3)cc2)cc1 :: y

====

Tested on: CP185
Experiment notes: qHTS profiling for inhibitors of Plasmodium falciparum proliferation (AID 504749); note: nearly all actives have a fitted effect of over 60% in size
Condition set: P. falciparum in erythrocytes, SYBR Green DNA, 72 h; series mostly up to 28.7 µM
Experimental: NIH National Institute of Allergy and Infectious Diseases [NIAID] NIH Chemical Genomics Center [NCGC] […] Because mature erythrocytes lack DNA, only Plasmodium-derived DNA is detected. NCGC Assay Protocol Summary: The SYBR Green viability assay was adapted from a method described previously (Plouffe et al., 2008). […] The following morning, fluorescence intensity at 485(14) nm excitation and 535(25) nm emission wavelengths was measured on an EnVision (Perkin Elmer) plate reader. […]
Results filed as inconclusive are left out. Active and inactive are the calls of the source. Calls come from the whole dose curve; as a rule, active = well fitted inhibition curve with a large enough effect; inconclusive = small, poorly fitted or top-dose-only effect; inactive = flat fitted curve, though single readings scatter.
Outcome codes: active, inactive

CCOC(=O)c1cccc(N)c1 :: inactive
Cc1c(F)c(N2CCNC(C)C2)cc2c1c(=O)c(C(=O)O)cn2C1CC1 (centres undefined) :: inactive
COc1cc2c(cc1OC)C(C(C(=O)N(CCc1ccc(OC)c(OC)c1OC)CCc1ccc(OC)c(OC)c1OC)c1ccccc1)=NCC2 (centres undefined) :: active
c1ccc(-c2ccc(C(c3ccccc3)n3ccnc3)cc2)cc1 (centres undefined) :: active
N[C@H](Cc1c[nH]c2ccccc12)C(=O)O :: inactive
NC(=O)C(=O)N/N=C/c1ccc([N+](=O)[O-])o1 :: inactive
Cc1c(C(C)C)c(=O)n(-c2ccccc2)n1C :: inactive
NCCC(O)(P(=O)(O)O)P(=O)(O)O :: inactive
C[C@@H]1C[C@H]2[C@@H]3CCC4=CC(=O)C=C[C@]4(C)[C@@]3(F)[C@@H](O)C[C@]2(C)[C@H]1C(=O)CO :: inactive
O=C(Nc1ccc(Cl)c(Cl)c1)C1CC1 :: inactive
CC1=C(C(=O)OC(C)C)C(c2cccc([N+](=O)[O-])c2)C(C(=O)OC2CN(C(c3ccccc3)c3ccccc3)C2)=C(N)N1 (centres undefined) :: active
CCCCCCCCCCCCCCCCOP(=O)([O-])OCC[N+](C)(C)C :: inactive
CCC(C(=O)OCCN(CC)CC)c1ccccc1 (centres undefined) :: inactive
CCCCCC=CCC=CCCCCCCCC(=O)OCC :: inactive
O=S1(=O)c2cccc3cccc(c23)N1CCCN1CCN(c2ccc(F)cc2)CC1 :: inactive
CC(C)(C(=O)c1cccnc1)c1cccnc1 :: inactive
CC1(C)CCC(NC(=O)[C@@H](N)CCC(=O)O)CC1 :: inactive
CCCCC1=NC2(CCCC2)C(=O)N1Cc1ccc(-c2ccccc2-c2nn[nH]n2)cc1 :: inactive
Cc1ccnc(NS(=O)(=O)c2ccc(N)cc2)n1 :: inactive
N[C@@H](Cc1cnc[nH]1)C(=O)O :: inactive
CC(O)C(=O)O (centres undefined) :: inactive
CN1C2CCC1CC(OC(=O)c1c[nH]c3ccccc13)C2 (centres undefined) :: inactive
CC(O)(P(=O)(O)O)P(=O)(O)O :: inactive
CCOc1ccc(Cc2nccc3cc(OCC)c(OCC)cc23)cc1OCC :: inactive
